Target: T1, human CLL1 ECD-His (human CLL1 extracellular domain with His tag) (human, UniProt Q5QGZ9 65-265)
T1 construct: also called antigen human CLL1 ECD-His; antigen CLL1; not shown: His tag
T1 sequence: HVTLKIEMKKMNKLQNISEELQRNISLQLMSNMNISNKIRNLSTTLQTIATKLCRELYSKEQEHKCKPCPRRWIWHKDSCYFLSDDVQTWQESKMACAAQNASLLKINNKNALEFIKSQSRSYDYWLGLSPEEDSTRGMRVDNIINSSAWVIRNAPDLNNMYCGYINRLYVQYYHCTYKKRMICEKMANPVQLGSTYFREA
Experiment: BLI (ForteBio), antibody on AHC sensor, 100 nM human CLL1 ECD-His, 1:1 model
REPORTED_METRIC: koff (s⁻¹)
Reply with just the number (in s⁻¹).

As a guide, the following entries are already answered.
chimeric antibody ch23D7 (antibody, V domains shown) VH: QVQLQQPGSDLVRPGASVKLSCKASGYTFTRYWMHWVKQRPGHGLEWIGYIYPGSGTSNYDEKFKSKATLTVDTSSSTAYMQLSSLTSEDSAVYYCTREARYTMDYWGQGTSVTVSS VL: QIVLTQSPAIMSASPGEKVTMTCSASSSVSYIYWYQQKPGSSPGLLIYDTSNLASGVPVRFSGSGSGTSYSLTISRMEAEDAATYYCQQWSSFPPTFGAGTKLELK; 0.000284
chimeric antibody ch19C1 (antibody, V domains shown) VH: QVQLQQSGAELMKPGASVKISCKATGYTFSSYWIEWVKQRPGHGLEWIGEIFPGSGSIKYNEKFKGKATFTADTSSNTAYMQLSSLTSEDSAVHYCARGGTYNDYSLFDYWGQGTTLTVSS VL: QIVLTQSPAIMSASPGEKVTMTCSASSSVSYMYWYQQKPGSSPRLLIFDTSNLASGVPVRFSGSGSGTSYSLTISRMEAEDAATYYCQQWSSYPLTFGAGTKLELK; 0.00197
chimeric antibody ch27H4 (antibody, V domains shown, also called parent antibody) VH: EVQLQQSGPELVKPGASVKISCKASGYSFTGYHMHWVKQSHVKSLEWIGRINPYNGAASHNQKFKDKATLTVDKSSSTAYMELHSLTSEDSAVYYCARGWDYDGGYYAMDYWGQGTSVTVSS VL: DIVMSQSPSSLAVSVGEKVTMSCKSSQSLLYSDNQKNYLAWYQQKPGQSPKLLIYWASTRESGVPDRFTGSGSGTDFTLTISSVKAEDLAVYYCQQYYTYPYTFGGGTKLEIK; 0.00101

Now take the following binder into account.
Find the recorded koff belonging to anti-human CLL-1 control antibody 1075.7 (antibody, it was captured by anti-human IgG sensors and detected with anti-human IgG-Fc, so a human Fc was present; also called ch1075.7) scFv: ENVLTQSPAIMSASPGEKVTMTCRASSNVISSYVHWYQQRSGASPKLWIYSTSNLASGVPARFSGSGSGTSYSLTISSVEAEDAATYYCQQYSGYPLTFGAGTKLELGGGGSGGGGSGGGGSDIQLQESGPGLVKPSQSLSLTCSVTGYSITSAYYWNWIRQFPGNKLEWMGYISYDGRNNYNPSLKNRISITRDTSKNQFFLKLNSVTTEDTATYYCAKEGDYDVGNYYAMDYWGQGTSVTVSS and report it. 4.48e-05
